measured_target: HDAC6 (Homo sapiens (Human), UniProt Q9UBN7)
Sequence (Q9UBN7 whole entry): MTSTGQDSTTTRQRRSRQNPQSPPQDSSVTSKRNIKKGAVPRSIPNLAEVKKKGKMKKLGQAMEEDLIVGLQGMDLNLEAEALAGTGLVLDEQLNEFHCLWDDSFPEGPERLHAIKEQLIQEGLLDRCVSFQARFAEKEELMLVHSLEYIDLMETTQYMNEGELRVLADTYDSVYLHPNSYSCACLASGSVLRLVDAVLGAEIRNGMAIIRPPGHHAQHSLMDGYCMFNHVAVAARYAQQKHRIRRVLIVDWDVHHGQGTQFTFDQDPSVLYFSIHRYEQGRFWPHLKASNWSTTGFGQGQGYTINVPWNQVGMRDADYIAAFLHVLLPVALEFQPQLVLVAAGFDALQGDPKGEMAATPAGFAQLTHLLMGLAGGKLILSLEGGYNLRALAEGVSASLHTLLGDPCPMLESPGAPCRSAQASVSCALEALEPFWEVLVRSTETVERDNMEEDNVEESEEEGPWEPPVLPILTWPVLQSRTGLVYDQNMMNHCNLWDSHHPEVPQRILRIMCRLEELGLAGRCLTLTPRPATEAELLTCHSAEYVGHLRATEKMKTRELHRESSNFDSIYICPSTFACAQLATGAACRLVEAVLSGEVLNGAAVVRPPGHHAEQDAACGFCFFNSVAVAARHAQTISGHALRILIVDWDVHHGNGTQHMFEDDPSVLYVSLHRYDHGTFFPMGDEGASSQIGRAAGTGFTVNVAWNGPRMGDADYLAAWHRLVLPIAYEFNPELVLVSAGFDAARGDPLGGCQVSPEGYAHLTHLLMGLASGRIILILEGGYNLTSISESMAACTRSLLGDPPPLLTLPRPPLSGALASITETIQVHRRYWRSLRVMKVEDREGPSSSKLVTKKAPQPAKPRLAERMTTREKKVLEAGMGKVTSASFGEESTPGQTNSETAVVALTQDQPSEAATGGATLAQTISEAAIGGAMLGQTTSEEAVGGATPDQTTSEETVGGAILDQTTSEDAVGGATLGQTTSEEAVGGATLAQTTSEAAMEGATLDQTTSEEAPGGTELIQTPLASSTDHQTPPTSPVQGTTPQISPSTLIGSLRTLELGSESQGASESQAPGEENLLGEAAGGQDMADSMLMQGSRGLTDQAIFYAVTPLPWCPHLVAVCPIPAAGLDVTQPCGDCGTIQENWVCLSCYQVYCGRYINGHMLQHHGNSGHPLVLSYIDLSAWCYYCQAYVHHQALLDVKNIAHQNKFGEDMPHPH
experimental_details: Tubulin acetylation cytoblot assay (A549 cells)
particulars: 17-18 h, concentration for 50% induction of acetylated tubulin, read-out: Tub-ac EC50
readout_kind: pEC50
FYI, pEC50 means -log10 of a concentration in mol per litre.

Fill in: HDAC6 (Homo sapiens (Human), UniProt Q9UBN7) pEC50 for O=C(NO)c1ccc2c(c1)CC(Nc1nccc(-c3cccnc3)n1)CN2 (stereo not drawn) [Example 53] = 4.93

Known value: HDAC6 (Homo sapiens (Human), UniProt Q9UBN7) pEC50 of the compound COc1ccc(-c2ccnc(NC3CCc4ccc(C(=O)NO)cc4C3)n2)c(OC)c1 (stereo not drawn) [Example 18] equals 5.86

Measured on HDAC6 (Homo sapiens (Human), UniProt Q9UBN7), O=C(NO)c1cc2c(cc1F)CCC(NS(=O)(=O)c1ccc(Cl)cc1)C2 (stereo not drawn) [Example 51] has a documented pEC50 of 5.28

Test item COc1ccc(S(=O)(=O)NC2CCc3ccc(C(=O)NO)cc3C2)cc1OC (stereo not drawn) [Example 45] ; HDAC6 (Homo sapiens (Human), UniProt Q9UBN7); reported pEC50 was 5.46

Entry O=C(NO)c1ccc2c(c1)CC(Nc1nccc(-c3ccc(Cl)nc3)n1)CC2 (stereo not drawn) [Example 29] , tested on HDAC6 (Homo sapiens (Human), UniProt Q9UBN7), has a reported pEC50 of 5.84

So the reported pEC50 for O=C(NO)c1ccc2c(c1)CC(Nc1nccc(-c3ccc(C(F)(F)F)cc3)n1)CC2 (stereo not drawn) [Example 19] , on HDAC6 (Homo sapiens (Human), UniProt Q9UBN7), turned out to be 5.30

For the compound O=C(NO)c1ccc2c(c1)CC(NS(=O)(=O)c1ccc(F)cc1F)CC2 (stereo not drawn) [Example 44] , the measured pEC50 on HDAC6 (Homo sapiens (Human), UniProt Q9UBN7) was 5.41

Query O=C(NO)c1ccc2c(c1)CC(NC(=O)c1ccc(Cl)cc1)CN2 (stereo not drawn) [Example 55] on HDAC6 (Homo sapiens (Human), UniProt Q9UBN7); pEC50 returned: 5.57

Here Cc1ccc(-c2ccnc(NC3CCc4ccc(C(=O)NO)cc4C3)n2)cc1 (stereo not drawn) [Example 11] was tested on HDAC6 (Homo sapiens (Human), UniProt Q9UBN7), and its pEC50 came to 5.29

====

System: p21 promoter-luciferase construct
experimental_details: p21 reporter gene induction in HeLa cells transfected with p21 promoter-luciferase construct
Type: cell-based
particulars: relative gene level of p21 induced compared to MS275 at 3 μM
Answer each item with its documented p21 RP3.
Reply with the value as a number alone.

The reported p21 RP3 value, p21 promoter-luciferase construct, for O=C(NO)c1ccc2c(c1)CC(Nc1ccc([N+](=O)[O-])cn1)CC2 (centres unmarked) reads 0.18

Assay p21 promoter-luciferase construct, sample Cc1cncc(-c2ccnc(NC3CCc4ccc(C(=O)NO)cc4C3)n2)c1 (centres unmarked) , p21 RP3 read: 0.68

Tested system p21 promoter-luciferase construct; p21 RP3 recorded for O=C(NO)c1ccc2c(c1)CC(Nc1nccc(-c3ccc(C(F)(F)F)cc3)n1)CC2 (centres unmarked) was −0.18

Record for COc1ccc(S(=O)(=O)NC2CNc3ccc(C(=O)NO)cc3C2)cc1OC (centres unmarked) under target or system p21 promoter-luciferase construct: p21 RP3 reported as −0.02

Bench note, p21 promoter-luciferase construct: entry CCOc1cc(C)nc(NC2CCc3ccc(C(=O)NO)cc3C2)n1 (centres unmarked) , its p21 RP3 = −0.21

Reference source for all entries: patent US8716285B2
